Target: UniProtKB P42336
Sequence (P42336 whole entry): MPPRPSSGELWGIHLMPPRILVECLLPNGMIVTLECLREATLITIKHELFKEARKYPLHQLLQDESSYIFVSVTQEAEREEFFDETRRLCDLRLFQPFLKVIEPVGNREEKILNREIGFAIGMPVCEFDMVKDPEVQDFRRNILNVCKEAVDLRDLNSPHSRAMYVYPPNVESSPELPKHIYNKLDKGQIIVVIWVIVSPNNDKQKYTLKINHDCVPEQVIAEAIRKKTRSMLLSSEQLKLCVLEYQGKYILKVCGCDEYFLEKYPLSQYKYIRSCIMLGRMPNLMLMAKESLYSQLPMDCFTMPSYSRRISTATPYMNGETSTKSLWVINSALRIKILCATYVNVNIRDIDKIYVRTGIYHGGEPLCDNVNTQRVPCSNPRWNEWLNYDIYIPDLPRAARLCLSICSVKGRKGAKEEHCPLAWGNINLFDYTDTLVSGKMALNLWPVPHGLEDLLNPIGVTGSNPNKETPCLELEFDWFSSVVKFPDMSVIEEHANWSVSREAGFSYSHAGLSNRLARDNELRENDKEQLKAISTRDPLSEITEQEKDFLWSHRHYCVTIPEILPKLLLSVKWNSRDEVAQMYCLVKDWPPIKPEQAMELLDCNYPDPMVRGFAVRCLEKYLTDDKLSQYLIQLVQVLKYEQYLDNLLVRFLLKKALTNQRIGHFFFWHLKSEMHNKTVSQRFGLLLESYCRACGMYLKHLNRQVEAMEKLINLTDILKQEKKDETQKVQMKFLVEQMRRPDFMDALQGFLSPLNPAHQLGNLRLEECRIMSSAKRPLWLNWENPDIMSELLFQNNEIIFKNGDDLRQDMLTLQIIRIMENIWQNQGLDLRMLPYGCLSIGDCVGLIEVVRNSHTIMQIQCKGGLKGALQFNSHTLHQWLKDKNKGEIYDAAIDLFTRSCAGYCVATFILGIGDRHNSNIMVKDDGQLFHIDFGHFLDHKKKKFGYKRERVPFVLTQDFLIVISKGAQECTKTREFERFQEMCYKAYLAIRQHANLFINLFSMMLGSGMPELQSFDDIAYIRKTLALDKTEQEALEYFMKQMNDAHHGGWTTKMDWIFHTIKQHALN
Sequence (P27986 whole entry partner): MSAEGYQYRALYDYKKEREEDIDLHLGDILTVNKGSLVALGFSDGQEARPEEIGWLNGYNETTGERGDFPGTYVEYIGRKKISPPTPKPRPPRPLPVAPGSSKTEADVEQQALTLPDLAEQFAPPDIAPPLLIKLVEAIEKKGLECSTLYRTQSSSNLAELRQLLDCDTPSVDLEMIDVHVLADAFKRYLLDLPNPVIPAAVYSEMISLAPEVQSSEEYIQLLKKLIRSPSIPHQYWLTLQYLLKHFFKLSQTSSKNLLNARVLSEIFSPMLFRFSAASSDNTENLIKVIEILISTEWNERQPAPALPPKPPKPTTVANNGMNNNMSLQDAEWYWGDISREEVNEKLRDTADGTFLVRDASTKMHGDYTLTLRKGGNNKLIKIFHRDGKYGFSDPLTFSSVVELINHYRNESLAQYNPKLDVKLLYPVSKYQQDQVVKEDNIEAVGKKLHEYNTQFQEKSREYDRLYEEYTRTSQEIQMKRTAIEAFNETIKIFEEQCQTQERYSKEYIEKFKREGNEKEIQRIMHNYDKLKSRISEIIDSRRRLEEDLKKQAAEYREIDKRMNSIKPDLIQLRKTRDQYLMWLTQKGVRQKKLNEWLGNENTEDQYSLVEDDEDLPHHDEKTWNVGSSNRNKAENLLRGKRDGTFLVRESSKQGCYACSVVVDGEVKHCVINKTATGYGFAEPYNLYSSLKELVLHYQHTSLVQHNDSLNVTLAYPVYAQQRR
Experiment: Kinase activity in cell-free assay (HotSpot)
property: EC50

What the record says about O=C1NC(=O)C(=CC=Cc2cccs2)C(=O)N1 [C96] : EC50 is ~5 µM

----------
Target: PI3Kδ (Homo sapiens, UniProt O00329)
Construct: purchased Reaction Biology Corp
Sequence (O00329 whole entry): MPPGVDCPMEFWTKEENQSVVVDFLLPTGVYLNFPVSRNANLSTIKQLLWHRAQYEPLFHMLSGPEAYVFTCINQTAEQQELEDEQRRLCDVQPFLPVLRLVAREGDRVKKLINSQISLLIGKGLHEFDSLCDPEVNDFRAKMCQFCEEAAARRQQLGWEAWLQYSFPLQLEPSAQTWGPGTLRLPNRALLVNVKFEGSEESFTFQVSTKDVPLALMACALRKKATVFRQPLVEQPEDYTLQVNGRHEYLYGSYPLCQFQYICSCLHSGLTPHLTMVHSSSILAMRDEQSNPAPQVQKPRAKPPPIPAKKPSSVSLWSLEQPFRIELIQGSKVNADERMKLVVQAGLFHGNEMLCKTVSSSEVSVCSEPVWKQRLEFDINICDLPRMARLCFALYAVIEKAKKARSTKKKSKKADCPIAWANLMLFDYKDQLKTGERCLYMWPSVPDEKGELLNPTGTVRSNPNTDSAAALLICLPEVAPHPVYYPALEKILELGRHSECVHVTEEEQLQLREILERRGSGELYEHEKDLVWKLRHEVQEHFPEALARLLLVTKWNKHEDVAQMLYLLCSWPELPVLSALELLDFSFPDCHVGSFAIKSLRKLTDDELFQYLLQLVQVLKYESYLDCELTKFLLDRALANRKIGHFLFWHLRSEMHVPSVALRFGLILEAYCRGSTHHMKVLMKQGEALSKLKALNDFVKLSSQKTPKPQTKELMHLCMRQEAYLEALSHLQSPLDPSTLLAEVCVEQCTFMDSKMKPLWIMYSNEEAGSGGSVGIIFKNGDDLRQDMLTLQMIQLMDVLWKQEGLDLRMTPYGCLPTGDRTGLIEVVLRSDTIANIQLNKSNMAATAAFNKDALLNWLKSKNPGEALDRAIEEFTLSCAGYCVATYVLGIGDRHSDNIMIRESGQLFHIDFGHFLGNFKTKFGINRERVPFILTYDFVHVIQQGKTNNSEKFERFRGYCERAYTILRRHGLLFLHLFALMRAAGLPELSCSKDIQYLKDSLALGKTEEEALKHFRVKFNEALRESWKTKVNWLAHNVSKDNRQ
Sequence (P27986 whole entry partner): as the sequence (P27986 whole entry partner) above
Test: Kinase activity in cell-free assay (HotSpot)
Format: biochemical
property: EC50

What the record says about O=C1NC(=O)C(=CC=Cc2cccs2)C(=O)N1 [C96] : EC50 is ~5 µM

----------
Target: PI3Kδ (Homo sapiens)
Construct: purchased Reaction Biology Corp
Assay: Kinase activity in cell-free assay (HotSpot)
Type: biochemical
property: IC50
# output: number + unit

What the record says about O=C1NC(=O)C(=CC=Cc2cccs2)C(=O)N1 : IC50 is 7.05 µM

Values from paper PMC4116524
